method_description: Tmax in Sprague-Dawley rat at 10 mg/kg, po measured after 24 hrs by LC-MS/MS analysis
Assay type: ADME, organism-based
setup_conditions: in vivo
reported_metric: Tmax
Please report the result as a number followed by the unit.

Ask: What value of Tmax has been recorded for this entry: `CC(=O)Nc1cccc(Nc2nc(Nc3ccc(-c4ccsc4)cn3)ncc2Cl)c1`
Reply: 46.2 min

----------
method_description: AUC(last) in Sprague-Dawley rat at 10 mg/kg, po measured after 24 hrs by LC-MS/MS analysis
Assay type: ADME, organism-based
Set-up: dose 10 mg/kg, time 24 hrs, route po
setup_conditions: in vivo
reported_metric: AUC(0-t) at 24 h (ng·h/mL)
Answers are plain numbers, in ng·h/mL.

Ask: What value of AUC(0-t) at 24 h has been recorded for this entry: `CC(=O)Nc1cccc(Nc2nc(Nc3ccc(-c4ccsc4)cn3)ncc2Cl)c1`
Reply: 511
